Test description: Absorbance and fluorescence emission spectra (SpectraMax M2)
Type: physicochemical
Recorded conditions: MKCA compound library; absorbance maximum
Kindly state λmax Absorp. (nm) for each of the entries shown.

The cases that follow already have their λmax Absorp. (nm) on record.
{"Molecule smiles": "CN(Cc1ccccc1)C1=[N+]2C(=C(c3ccc(NC(=O)CCl)cc3)c3ccc(-n4cc(CCc5ccccc5)nn4)n3[B-]2(F)F)C=C1", "Endpoint result": "467 nm"}
{"Molecule smiles": "CCCc1cn(-c2ccc3n2[B-](F)(F)[N+]2=C(N4CCCC4)C=CC2=C3c2ccc(NC(=O)CCl)cc2)nn1", "Endpoint result": "462 nm"}

Items follow; give λmax Absorp. (nm) for each.
1. CCOc1ccccc1CNC1=[N+]2C(=C(c3ccc(NC(=O)CCl)cc3)c3ccc(-n4cc(CC5CCCCC5)nn4)n3[B-]2(F)F)C=C1
2. O=C(CCl)Nc1ccc(C2=C3C=CC(NCc4cc(F)cc(F)c4)=[N+]3[B-](F)(F)n3c2ccc3-n2cc(CC3CCCCC3)nn2)cc1

["464 nm", "467 nm"]

* * *

Kindly state φ (quantum yield) for each of the entries shown.
Test description: Quantum yield measurements versus Acridine Yellow in EtOH
Type: physicochemical
Recorded conditions: MK library, Table 5; excitation 460 nm
Answers are plain numbers, in %.

The cases that follow already have their φ (quantum yield) on record.
{"Molecule smiles": "Nc1ccc(C2=C3C=CC(N4CCc5ccccc5C4)=[N+]3[B-](F)(F)n3c2ccc3-n2cc(CCc3ccccc3)nn2)cc1", "φ (quantum yield) [%]": 0.13}
{"Molecule smiles": "Nc1ccc(C2=C3C=CC(N4CCCC4)=[N+]3[B-](F)(F)n3c2ccc3-n2cc(CCc3ccccc3)nn2)cc1", "φ (quantum yield) [%]": 0.22}

Items follow; give φ (quantum yield) for each.
1. CCCc1cn(-c2ccc3n2[B-](F)(F)[N+]2=C(N4CCCC4)C=CC2=C3c2ccc(N)cc2)nn1
2. COc1ccc(OC)c(CNC2=[N+]3C(=C(c4ccc(N)cc4)c4ccc(-n5cc(CC(C)C)nn5)n4[B-]3(F)F)C=C2)c1
3. Cc1ccccc1CNC1=[N+]2C(=C(c3ccc(N)cc3)c3ccc(-n4cc(CC5CCCCC5)nn4)n3[B-]2(F)F)C=C1
4. CCOc1ccccc1CNC1=[N+]2C(=C(c3ccc(N)cc3)c3ccc(-n4cc(CN(C)Cc5ccccc5)nn4)n3[B-]2(F)F)C=C1
5. CCOc1ccccc1CNC1=[N+]2C(=C(c3ccc(N)cc3)c3ccc(-n4cc(CCc5ccccc5)nn4)n3[B-]2(F)F)C=C1
6. CC(C)Cc1cn(-c2ccc3n2[B-](F)(F)[N+]2=C(NCc4cc(F)cc(F)c4)C=CC2=C3c2ccc(N)cc2)nn1
7. CN(Cc1ccccc1)C1=[N+]2C(=C(c3ccc(N)cc3)c3ccc(-n4cc(CO)nn4)n3[B-]2(F)F)C=C1

1. 0.29
2. 0.37
3. 0.64
4. 1.19
5. 1.96
6. 0.86
7. 0.27

Items follow; give φ (quantum yield) for each.
1. Nc1ccc(C2=C3C=CC(NCc4cc(F)cc(F)c4)=[N+]3[B-](F)(F)n3c2ccc3-n2cc(C3CC3)nn2)cc1
2. CN(Cc1ccccc1)Cc1cn(-c2ccc3n2[B-](F)(F)[N+]2=C(N(C)Cc4ccccc4)C=CC2=C3c2ccc(N)cc2)nn1

1: 0.67; 2: 0.52

* * *

Test description: Quantum yield measurements versus Acridine Yellow in EtOH
Format: physicochemical
Recorded conditions: MK library, Table 5; excitation 460 nm
Readout kind: φ (quantum yield) (%)
Numbers only, in %.

{"Molecule": "COc1ccc(OC)c(CNC2=[N+]3C(=C(c4ccc(N)cc4)c4ccc(-n5cc(CCc6ccccc6)nn5)n4[B-]3(F)F)C=C2)c1", "Endpoint result": 0.85}
{"Molecule": "CC1CN(C2=[N+]3C(=C(c4ccc(N)cc4)c4ccc(-n5cc(CCc6ccccc6)nn5)n4[B-]3(F)F)C=C2)CC(C)O1 (stereo not shown)", "Endpoint result": 0.34}
{"Molecule": "CCCc1cn(-c2ccc3n2[B-](F)(F)[N+]2=C(N4CCc5ccccc5C4)C=CC2=C3c2ccc(N)cc2)nn1", "Endpoint result": 0.12}
{"Molecule": "CC(C)Cc1cn(-c2ccc3n2[B-](F)(F)[N+]2=C(N4CCc5ccccc5C4)C=CC2=C3c2ccc(N)cc2)nn1", "Endpoint result": 0.14}
{"Molecule": "CC(C)Cc1cn(-c2ccc3n2[B-](F)(F)[N+]2=C(N(C)Cc4ccccc4)C=CC2=C3c2ccc(N)cc2)nn1", "Endpoint result": 0.41}

Items follow; give φ (quantum yield) for each.
1. Nc1ccc(C2=C3C=CC(NCc4cc(F)cc(F)c4)=[N+]3[B-](F)(F)n3c2ccc3-n2cc(CC3CCCCC3)nn2)cc1
2. CCCCCC(O)c1cn(-c2ccc3n2[B-](F)(F)[N+]2=C(N4CC(C)OC(C)C4)C=CC2=C3c2ccc(N)cc2)nn1 (stereo not shown)
3. CCCC(C)c1cn(-c2ccc3n2[B-](F)(F)[N+]2=C(NCc4cc(F)cc(F)c4)C=CC2=C3c2ccc(N)cc2)nn1 (stereo not shown)
4. CCCCCC(O)c1cn(-c2ccc3n2[B-](F)(F)[N+]2=C(N4CCCC4)C=CC2=C3c2ccc(N)cc2)nn1 (stereo not shown)

[0.56, 0.16, 0.63, 0.33]

Items follow; give φ (quantum yield) for each.
1. CCCC(C)c1cn(-c2ccc3n2[B-](F)(F)[N+]2=C(N(C)Cc4ccccc4)C=CC2=C3c2ccc(N)cc2)nn1 (stereo not shown)
2. CCOc1ccccc1CNC1=[N+]2C(=C(c3ccc(N)cc3)c3ccc(-n4cc(CC5CCCCC5)nn4)n3[B-]2(F)F)C=C1
3. COc1ccc(OC)c(CNC2=[N+]3C(=C(c4ccc(N)cc4)c4ccc(-n5cc(C6CC6)nn5)n4[B-]3(F)F)C=C2)c1

1. 0.46
2. 1.64
3. 0.28

Items follow; give φ (quantum yield) for each.
1. CCCc1cn(-c2ccc3n2[B-](F)(F)[N+]2=C(NCc4ccccc4OCC)C=CC2=C3c2ccc(N)cc2)nn1
2. CC1CN(C2=[N+]3C(=C(c4ccc(N)cc4)c4ccc(-n5cc(CN(C)Cc6ccccc6)nn5)n4[B-]3(F)F)C=C2)CC(C)O1 (stereo not shown)
3. CC(C)Cc1cn(-c2ccc3n2[B-](F)(F)[N+]2=C(N4CC(C)OC(C)C4)C=CC2=C3c2ccc(N)cc2)nn1 (stereo not shown)
4. CN(Cc1ccccc1)C1=[N+]2C(=C(c3ccc(N)cc3)c3ccc(-n4cc(C5CCCC5)nn4)n3[B-]2(F)F)C=C1

1: 1.91; 2: 0.23; 3: 0.23; 4: 0.39

* * *

Test description: Quantum yield measurements versus Acridine Yellow in EtOH
Format: physicochemical
Recorded conditions: MKAC compound library; quantum yield
Method: ^1H-NMR, ^19F-NMR and ^13C-NMR spectra were recorded on Bruker ACF300 (300 MHz), DPX300 (300 MHz) and AMX500 (500 MHz) spectrometers. High resolution mass spectra (ESI) were obtained on a Finnigan/MAT 95XL-T spectrometer. Spectroscopic and quantum yield data were measured on a SpectraMax M2 spectrophotometer (Molecular Devices). Data analysis was performed using GraphPrism 5.0. […]
Kindly state φ (%) for each of the entries shown.
Give bare numbers, in %.

{"Compound": "CC(=O)Nc1ccc(C2=C3C=CC(N4CCCC4)=[N+]3[B-](F)(F)n3c2ccc3-n2cc(C3CCCC3)nn2)cc1", "φ (%)": 1.00}
{"Compound": "CC(=O)Nc1ccc(C2=C3C=CC(N4CC(C)OC(C)C4)=[N+]3[B-](F)(F)n3c2ccc3-n2cc(C3CCCC3)nn2)cc1 (centres unmarked)", "φ (%)": 3.47}
{"Compound": "COc1ccc(OC)c(CNC2=[N+]3C(=C(c4ccc(NC(C)=O)cc4)c4ccc(-n5cc(CN(C)Cc6ccccc6)nn5)n4[B-]3(F)F)C=C2)c1", "φ (%)": 18.28}
{"Compound": "CCCC(C)c1cn(-c2ccc3n2[B-](F)(F)[N+]2=C(N4CC(C)OC(C)C4)C=CC2=C3c2ccc(NC(C)=O)cc2)nn1 (centres unmarked)", "φ (%)": 2.40}

# input for lookup
For the compound CCOc1ccccc1CNC1=[N+]2C(=C(c3ccc(NC(C)=O)cc3)c3ccc(-n4cc(CCc5ccccc5)nn4)n3[B-]2(F)F)C=C1 , give its reported φ (%).
29.05

* * *

Test description: Quantum yield measurements versus Acridine Yellow in EtOH
Assay type: physicochemical
Recorded conditions: BDCAC library, Table 3; excitation 460 nm
Readout kind: φ (quantum yield) (%)
One number for each entry, in %.

The cases that follow already have their φ (quantum yield) on record.
{"Molecule smiles": "CCCCCCCc1cn(-c2ccc3n2[B-](F)(F)[N+]2=C(N4CCCCC4)C=CC2=C3c2ccc(NC(C)=O)cc2)nn1", "Measurement unit": "%", "φ (quantum yield)": 1.4}
{"Molecule smiles": "CC(=O)Nc1ccc(C2=C3C=CC(N4CCCCC4)=[N+]3[B-](F)(F)n3c2ccc3-n2cc(C3(O)CCCC3)nn2)cc1", "Measurement unit": "%", "φ (quantum yield)": 0.8}

# input for lookup
For the molecule CC(=O)Nc1ccc(C2=C3C=CC(N4CCCCC4)=[N+]3[B-](F)(F)n3c2ccc3-n2cc(C3CCCC3)nn2)cc1 , give its reported φ (quantum yield).
1.3
